test-target: PE-labeled human PD-L1-Ig binding to Jurkat cell line over-expressing human PD-1 (Jurkat-PD-1) (Homo sapiens, UniProt Q15116)
Construct: expressed in transfected cells; host or cells: Jurkat
Sequence (Q15116 25-288): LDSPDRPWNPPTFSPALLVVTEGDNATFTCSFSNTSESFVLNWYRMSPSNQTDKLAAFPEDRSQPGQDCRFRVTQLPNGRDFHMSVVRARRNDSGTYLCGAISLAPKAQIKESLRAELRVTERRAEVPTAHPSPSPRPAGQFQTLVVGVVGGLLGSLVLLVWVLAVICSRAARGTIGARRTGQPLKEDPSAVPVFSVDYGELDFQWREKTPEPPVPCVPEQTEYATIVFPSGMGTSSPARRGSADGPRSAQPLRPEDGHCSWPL
protocol-details: Jurkat-PD-1 Cell Binding High-Content Screening Assay (CBA): Method 1
run-parameters: Jurkat-hPD-1 cells, PE-labeled PD-L1-Ig 20 nM final; read-out: Jurkat HPDL1 PD1 IC50 (uM) (Method 1)
Numbered stars: 1 amine (or outer) side, 2 acyl side, 3 side chain; on linkers, the order of the positions; unused ones are H or OH. Bridge positions count the residues as written; N and C are the ends. Square brackets hold non-standard residues; d marks the D form. Peptide text beside a SMILES is read from it. X22 = NC(=O)c1cccc(-c2ccc(C[C@H](N[*:1])C(=O)[*:2])cc2)c1; Bip = N[C@@H](Cc1ccc(-c2ccccc2)cc1)C(=O)O; NMeA = CN[C@@H](C)C(=O)O; Orn = NCCC[C@H](N)C(=O)O; Dab = NCC[C@H](N)C(=O)O
measured-parameter: IC50 (µM)
Report the value in µM with no unit label.

Here is how some compounds turned out for IC50.
CC(C)C[C@@H]1NC(=O)[C@H](CCCN)NC(=O)[C@@H](CC(C)C)NC(=O)[C@H](C)N(C)C(=O)[C@H](C(C)C)NC(=O)[C@H](Cc2ccc(-c3ccccc3)cc2)NC(=O)[C@H](C(C)C)NC(=O)[C@H](Cc2c[nH]c3ccccc23)NC(=O)[C@H](CC(=O)O)NC(=O)[C@H](Cc2ccc(O)cc2)NC(=O)[C@H](CC(N)=O)NC(=O)CSC[C@@H](C(=O)N[C@@H](C)C(N)=O)NC(=O)[C@H]([C@@H](C)O)NC(=O)[C@H](C(C)C)NC1=O [Compound 1243] ({CH2CO}-NYDWV[Bip]V[NMeA][dL][Orn]LVTCA-NH2; thioether N-14); 0.01
CC(C)C[C@@H]1NC(=O)[C@H](Cc2c[nH]c3ccccc23)NC(=O)[C@H](CC(=O)O)NC(=O)[C@H](Cc2ccncc2)NC(=O)[C@H](CN)NC(=O)CSC[C@@H](C(=O)NCC(N)=O)NC[C@H](CO)NC(=O)[C@H](C(C)C)NC(=O)[C@H](CC2CCCCC2)NC(=O)[C@H](CC(N)=O)NC(=O)[C@@H](CC(C)C)NC(=O)[C@H](C)N(C)C(=O)[C@H](C(C)C)NC(=O)[C@H](Cc2ccc(-c3ccccc3)cc2)NC1=O; 0.01
CC(C)C[C@@H]1NC(=O)[C@H](Cc2c[nH]c3ccccc23)NC(=O)[C@H](CC(=O)O)NC(=O)[C@H](Cc2ccc(O)cc2)NC(=O)[C@H](Cc2ccccc2)NC(=O)CSC[C@@H](C(=O)N[C@@H](C)C(N)=O)NC(=O)[C@H](CO)NC(=O)[C@H](C(C)C)NC(=O)[C@H](CC(C)C)NC(=O)[C@H](CC(=O)O)NC(=O)[C@@H](C)NC(=O)[C@H](C)N(C)C(=O)[C@H](C(C)C)NC(=O)[C@H](Cc2ccc(-c3cccc(C(N)=O)c3)cc2)NC1=O [Compound 1830] ({CH2CO}-FYDWL[X22]V[NMeA][dA]DLVSCA-NH2; thioether N-14); 0.9

Q: Any idea what its IC50 is? The compound is CC(C)C[C@@H]1NC(=O)[C@H](Cc2c[nH]c3ccccc23)NC(=O)[C@H](CC(=O)O)NC(=O)[C@H](Cc2ccc(O)cc2)NC(=O)[C@H](Cc2ccccc2)NC(=O)CSC[C@@H](C(=O)NCC(N)=O)NC(=O)[C@H](CO)NC(=O)[C@H](C(C)C)NC(=O)[C@H](CC(C)C)NC(=O)[C@H](CC(N)=O)NC(=O)[C@H](CCN)NC(=O)[C@H](C)N(C)C(=O)[C@H](C(C)C)NC(=O)[C@H](Cc2ccc(-c3ccccc3)cc2)NC1=O [Compound 1795] ({CH2CO}-FYDWL[Bip]V[NMeA][Dab]NLVSCG-NH2; thioether N-14)
A: 0.16

Q: Any idea what its IC50 is? The compound is CC(C)C[C@@H]1NC(=O)[C@H](CCN)NC(=O)[C@@H](CC(C)C)NC(=O)[C@H](C)N(C)C(=O)[C@H](CCCNC(=N)N)NC(=O)[C@H](Cc2ccc(-c3ccccc3)cc2)NC(=O)[C@H](C(C)C)NC(=O)[C@H](Cc2c[nH]c3ccccc23)NC(=O)[C@H](CC(=O)O)NC(=O)[C@H](Cc2ccc(O)cc2)NC(=O)[C@H](CC(N)=O)NC(=O)CSC[C@@H](C(=O)NCC(N)=O)NC(=O)[C@H](CO)NC(=O)[C@H](C(C)C)NC1=O [Compound 1247] ({CH2CO}-NYDWV[Bip]R[NMeA][dL][Dab]LVSCG-NH2; thioether N-14)
A: 0.06

Q: Any idea what its IC50 is? The compound is CC(C)C[C@@H]1NC(=O)[C@H](Cc2c[nH]c3ccccc23)NC(=O)[C@H](CC(=O)O)NC(=O)[C@H](Cc2ccc(O)cc2)NC(=O)[C@H](Cc2ccccc2)NC(=O)CSC[C@@H](C(=O)N[C@@H](C)C(N)=O)NC(=O)[C@H](CO)NC(=O)[C@H](CCCN)NC(=O)[C@H](CC(C)C)NC(=O)[C@H](CC(N)=O)NC(=O)[C@@H](C)NC(=O)[C@H](C)N(C)C(=O)[C@H](C(C)C)NC(=O)[C@H](Cc2ccc(-c3ccccc3)cc2)NC1=O [Compound 1530] ({CH2CO}-FYDWL[Bip]V[NMeA][dA]NL[Orn]SCA-NH2; thioether N-14)
A: 0.03

Q: Any idea what its IC50 is? The compound is CC(C)C[C@@H]1NC(=O)CSC[C@@H](C(=O)N[C@@H](C)C(N)=O)NC(=O)[C@H]([C@@H](C)O)NC(=O)[C@H](C(C)C)NC(=O)[C@H](CC(C)C)NC(=O)[C@H](CCN)NC(=O)[C@@H](CC(C)C)NC(=O)[C@H](C)N(C)C(=O)[C@H](CCCNC(=N)N)NC(=O)[C@H](Cc2ccc(-c3ccccc3)cc2)NC(=O)[C@H](C(C)C)NC(=O)[C@H](Cc2c[nH]c3ccccc23)NC(=O)[C@H](CC(=O)O)NC(=O)[C@H](Cc2ccc(O)cc2)NC1=O [Compound 1039] ({CH2CO}-LYDWV[Bip]R[NMeA][dL][Dab]LVTCA-NH2; thioether N-14)
A: 0.08

Q: Any idea what its IC50 is? The compound is CC(C)C[C@@H]1NC(=O)[C@H](CCCNC(=N)N)NC(=O)[C@@H](C)NC(=O)[C@H](C)N(C)C(=O)[C@H](C(C)C)NC(=O)[C@H](Cc2ccc(-c3ccccc3)cc2)NC(=O)[C@H](C(C)C)NC(=O)[C@H](Cc2c[nH]c3ccccc23)NC(=O)[C@H](CC(=O)O)NC(=O)[C@H](Cc2ccc(O)cc2)NC(=O)[C@H](Cc2ccccc2)NC(=O)CSC[C@@H](C(=O)N[C@@H](C)C(N)=O)NC(=O)[C@H](CO)NC(=O)[C@H](C(C)C)NC1=O [Compound 1779] ({CH2CO}-FYDWV[Bip]V[NMeA][dA]RLVSCA-NH2; thioether N-14)
A: 0.07

Recorded values, source patent US20240409585A1.
